# TARGET OR TEST SYSTEM: heNOS (Homo sapiens)
# Construct: expressed in transfected cells; host or cells: HEK293
# Sequence (P29474 2-1203 limits assumed): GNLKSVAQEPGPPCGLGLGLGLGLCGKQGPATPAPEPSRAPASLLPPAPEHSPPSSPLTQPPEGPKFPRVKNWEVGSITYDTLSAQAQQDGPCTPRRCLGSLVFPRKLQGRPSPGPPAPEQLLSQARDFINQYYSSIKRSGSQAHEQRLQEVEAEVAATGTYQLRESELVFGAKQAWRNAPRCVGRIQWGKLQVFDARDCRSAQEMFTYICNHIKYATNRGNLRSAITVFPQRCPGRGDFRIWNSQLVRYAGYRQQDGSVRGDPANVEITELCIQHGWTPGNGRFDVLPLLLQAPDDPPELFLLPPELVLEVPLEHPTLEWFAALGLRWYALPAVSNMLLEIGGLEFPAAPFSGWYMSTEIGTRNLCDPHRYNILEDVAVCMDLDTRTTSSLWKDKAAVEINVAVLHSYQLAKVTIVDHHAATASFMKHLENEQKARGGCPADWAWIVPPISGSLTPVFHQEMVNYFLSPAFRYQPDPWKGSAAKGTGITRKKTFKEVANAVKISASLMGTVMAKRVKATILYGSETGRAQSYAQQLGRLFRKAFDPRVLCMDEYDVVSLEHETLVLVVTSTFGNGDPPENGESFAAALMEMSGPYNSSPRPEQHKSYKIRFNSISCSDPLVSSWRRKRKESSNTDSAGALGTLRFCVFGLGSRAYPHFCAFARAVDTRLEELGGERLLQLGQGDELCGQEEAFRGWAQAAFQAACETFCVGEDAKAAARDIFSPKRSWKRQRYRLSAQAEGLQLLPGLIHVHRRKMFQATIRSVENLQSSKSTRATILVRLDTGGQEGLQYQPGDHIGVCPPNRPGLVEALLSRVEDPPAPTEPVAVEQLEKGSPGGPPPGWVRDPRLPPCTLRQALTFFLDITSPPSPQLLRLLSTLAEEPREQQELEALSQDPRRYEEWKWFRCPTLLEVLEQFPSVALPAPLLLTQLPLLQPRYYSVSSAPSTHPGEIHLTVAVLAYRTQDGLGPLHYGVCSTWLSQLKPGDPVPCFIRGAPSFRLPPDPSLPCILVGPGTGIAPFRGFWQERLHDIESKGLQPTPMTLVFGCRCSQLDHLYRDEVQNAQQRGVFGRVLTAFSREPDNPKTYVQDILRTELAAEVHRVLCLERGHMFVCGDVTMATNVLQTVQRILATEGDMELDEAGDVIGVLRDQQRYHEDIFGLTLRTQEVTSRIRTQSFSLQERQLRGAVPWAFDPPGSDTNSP
# PROTOCOL SUMMARY: DAN assay, heNOS expressed in transiently transfected HEK293 cells
# Assay type: cell-based
# APPLIED CONDITIONS: HEK293 cells transiently transfected with heNOS
ASSAY METRIC: EC50

- Cc1cc(C2CCCN2C(=O)CNCc2ccc3c(c2)OCO3)nc(-n2ccnc2)n1 (stereo not drawn): > 10 µM
- CN(CCCNCc1ccc2c(c1)OCO2)c1nc(-n2ccnc2)ns1: > 10 µM
- Cc1cc(C2CCCN2C(=O)NCCc2ccc3c(c2)OCO3)nc(-n2ccnc2)n1 (stereo not drawn): > 10 µM
